Assignment: determine reported logR [log(τ/KA)] (±SEM) pERK for the given compounds.
- Experimental system: hCB2 (Homo sapiens)
- Construct: expressed in transfected cells; host or cells: HEK Flp-in
- Sequence (P34972 whole entry): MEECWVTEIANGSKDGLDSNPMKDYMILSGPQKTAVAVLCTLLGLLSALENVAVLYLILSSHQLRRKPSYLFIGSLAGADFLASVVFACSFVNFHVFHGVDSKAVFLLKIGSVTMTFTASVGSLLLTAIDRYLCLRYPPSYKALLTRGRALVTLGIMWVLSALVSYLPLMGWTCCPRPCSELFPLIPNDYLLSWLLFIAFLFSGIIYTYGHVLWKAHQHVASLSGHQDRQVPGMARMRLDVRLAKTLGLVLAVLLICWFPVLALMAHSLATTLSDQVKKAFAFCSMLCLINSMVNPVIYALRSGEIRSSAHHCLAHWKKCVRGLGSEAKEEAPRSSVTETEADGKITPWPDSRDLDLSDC
- Test: pERK AlphaLISA assay, HEK Flp-in hCB2 cells
- Assay type: cell-based
- Assay setup: operational model transduction ratio

Worked cases, logR [log(τ/KA)] (±SEM) pERK given:
Compound	Experimental system	Value reported
CCOc1nc(NC23CC4CC(CC(C4)C2)C3)nc(N2CCNCC2)n1	hCB2 (Homo sapiens)	5.51 (0.05)
CCOc1nc(NC23CC4CC(CC(C4)C2)C3)nc(N2CCN(CCOCCOCCNC(=O)OC(C)(C)C)CC2)n1	hCB2 (Homo sapiens)	6.06 (0.02)
CCCCCCC(C)(C)c1ccc([C@@H]2C[C@H](O)CC[C@H]2CCCO)c(O)c1 [CP 55,940, reference compound]	hCB2 (Homo sapiens)	8.05 (0.03)

// batch mode: one logR [log(τ/KA)] (±SEM) pERK value per listed entry
1. CCOc1nc(NC23CC4CC(CC(C4)C2)C3)nc(N2CCN(C)CC2)n1
2. CCOc1nc(NC23CC4CC(CC(C4)C2)C3)nc(N2CCN(CCF)CC2)n1
3. CCOc1nc(NC23CC4CC(CC(C4)C2)C3)nc(N2CCN(CCOCCOCCNC(C)=O)CC2)n1

Response:
1: 7.45 (0.10); 2: 7.84 (0.07); 3: 5.16 (0.09)

The reported numbers originate from paper PMC6256112.
